# credit: patent US9475779B2

Experiment: Metabolic stability with human liver microsomes
Type: in vitro ADME
Settings: human, pooled human liver microsomes, pH 7.6, pooled human liver microsomes, 1 μM test compound, 37° C.; read-out: t1/2 INVITRO
Result Type: half-life at 1 μM (h)
Reply with just the number (in h).

1) CN1C(=O)N(c2cccc(C(F)(F)F)c2)C2=C(C(=O)CC2)C1c1ccc(C#N)cc1S(=O)(=O)CCCO (single isomer, unassigned) [Example B.1.3A] ... 1.52
2) CCS(=O)(=O)c1cc(C#N)ccc1C1C2=C(CCC2=O)N(c2ccnc(C(F)(F)F)c2)C(=O)N1C (single isomer, unassigned) [Example D.3B] ... 2

Read the next record carefully.
Q: Item CC[S+]([O-])c1cc(C#N)ccc1C1C2=C(CCC2=O)N(c2cccc(C(F)(F)F)c2)C(=O)N1C (single isomer, unassigned) [Example C.5.1] has what recorded half-life at 1 μM?
Ans: 1.83
